Reference source: PubChem BioAssay (NCI)

Recorded growth values for a group of molecules are listed next.
system: MDA-MB-435 melanoma; assay: NCI-60 one-dose screen, 48 h (100 = growth as untreated, 0 = no growth, -100 = all killed); details: 10 µM unless noted
This is part of a sample that, as a whole, favours compounds with a hit. Of some 83,000 tested, about 20% had one in any assay.
endpoint-label: growth (%)

- COc1cc(OC)c(C2SCC(=O)N2Nc2ncnc3ccccc23)cc1OC (stereo not given): 103
- CS(=O)(=O)c1ccc(-c2nc3ccccn3c2C=Nc2ccc(Cl)cc2)cc1: 56.7
- O=C1Nc2ccccc2Oc2ccc(S(=O)(=O)CC3CO3)cc21 (stereo not given): 46.3
- CCN1C(=S)N(CC)C2C1N=C(SC)N2/N=C/C=C/c1ccccc1[N+](=O)[O-] (stereo not given): 94.4
- Clc1ccc2oc3c(NCCCN4CCOCC4)c4ccccc4nc3c2c1: 22
- Cn1ccnc1C(=O)/C=C/c1ccc(NC(=O)Nc2ccc(Cl)cc2)cc1: 75
- O=C(O)CCCCCN1C(=O)/C(=C/c2ccc(O)c(O)c2)SC1=S: 103
- N#Cc1ccc(/C=N/NC(=O)c2[nH]c3ccc(Br)cc3c2-c2ccccc2)s1: 1.78
- COc1ccc(-c2cc(C(=O)N=Nc3c(O)[nH]c4ccccc34)c3ccccc3n2)cc1OC: 98.1
- C#Cc1nc(C2=C(C)C(=O)/C(=N/OC(C)=O)C2)cs1: 94.8
- NS(=O)(=O)c1cccc(Nc2nc(SCC(=O)c3ccc(Cl)cc3)nc3ccccc23)c1: 77.6
- COc1cc(N=Cc2sc(Nc3nccs3)nc2O)cc(OC)c1OC: 87.9
- CS(=O)(=O)c1ccc(-n2cc(/C=C/C(=O)c3ccc(NC(=O)CO[N+](=O)[O-])cc3)c(-c3ccc(Cl)cc3)n2)cc1: 104
- COc1cc(/C=C/C(=O)c2cc(OC)c(OC)c(OC)c2)ccc1OCc1ccccc1: 45.9
- Cc1ccc2ccc3ccc(C)nc3c2n1.Cc1ccc2ccc3ccc(C)nc3c2n1.Oc1c(Cl)cc(Cl)c2ccc(CN3CCCCC3)nc12.[Ru]: -90.5
- OC1CCN(CCCOc2c3ccc(Cl)cc3nc3c2oc2ccc(Cl)cc23)CC1: -70.4
- Oc1c(Cl)cc(Cl)c2ccc(CN3CCCCC3)nc12: 42.1
- CCOC(=O)c1sc(N)c(C(=O)OCC)c1C: 81.2
- Cc1ccc(CNS(=O)(=O)/N=C2\NC(=O)NC2=C(Cl)Cl)cc1: 47.7
- Cc1sc2nc(NCc3ccccc3Cl)[nH]c(=O)c2c1C: 92.6
- C=CCn1c(SCC(=O)c2ccc(Br)cc2)nnc1-c1c[nH]c2ccccc12: 108
- Cn1cc(-c2cc(N)n3nc(-c4cn(C)c5ccc(Cl)cc45)cc3n2)c2cc(Cl)ccc21: 16.5
- Cn1ccnc1C(=O)/C=C/c1ccc(NC(=O)Nc2ccccc2)cc1: -13.3
- O=C(CSc1nc2sc3c(c2c(=O)n1-c1ccc(Cl)cc1)CCCC3)NNC(=O)Nc1ccc(Cl)c(C(F)(F)F)c1: 46.8
- CCOc1ccc2nc(NC(=O)c3ccc(C(F)(F)F)cc3)sc2c1: 96.6
- COc1cccc(-c2nn(-c3ccccc3)cc2-c2ccnc(N3CCN(C(=O)Nc4ccc(F)cc4)CC3)c2)c1: 49.9
- NS(=O)(=O)c1cccc(Nc2nc(SCC(=O)c3ccc(Br)cc3)nc3ccccc23)c1: 75.3
- C#Cc1nc(C2=C(C)/C(=N/OCc3ccccc3)CC2)cs1: 80.1
- Cc1c(Nc2nnc(SCC(=O)Nc3sc4c(c3C#N)CCCC4)s2)c(=O)n(-c2ccccc2)n1C: 104
- Cn1c(SCC(=O)c2cccs2)nc2ccccc2c1=O: 103
- Nc1c(C(=O)Nc2ccc(Cl)cc2)sc2nc(-c3cnccn3)cc(-c3cccs3)c12: 77.5
- CNC(=O)c1cc(-c2ccc(NC(=O)Nc3ccc(N4CCOCC4)c(C(F)(F)F)c3)cc2)nc2cccnc12: 72.6
- N#Cc1c(-c2ccc(Cl)cc2)nc2c(-c3ccccc3)c(Nc3ccccc3)nn2c1N: 58.7
- Cc1cc2nc3c4cc(Cl)ccc4n(CC(=O)NCCN(C)C)c3nc2cc1C: 67.9
- COc1ccc(-c2nc3ccc(-c4nnc(SCC(=O)Nc5ccc(C(C)=O)cc5)o4)cc3[nH]2)cc1: 102
- N#Cc1nc(-c2ccccc2)oc1N1CCC(CO)C1 (stereo not given): 95.7
- O=c1[nH]c2ccc(Cl)cc2cc1CSc1ccccc1Nc1nccc(-c2ccc(Cl)cc2)n1: 96.8
- Cc1nc(-c2cc3ccccc3oc2=O)ccc1C(=O)/C=C/c1ccc(Cl)c(Cl)c1: 103
- Clc1ccc2c(OCCCN3CCOCC3)c3oc4ccccc4c3nc2c1: 33.2
- CCCC(=O)NC(c1cccnc1)c1cc(C)c2cccnc2c1O (stereo not given): 59.7
